Target: H-2K^b (Mus musculus, UniProt P01901)
Construct: endogenous in cells; host or cells: RMA-S cells (TAP-deficient)
Sequence (P01901 22-369): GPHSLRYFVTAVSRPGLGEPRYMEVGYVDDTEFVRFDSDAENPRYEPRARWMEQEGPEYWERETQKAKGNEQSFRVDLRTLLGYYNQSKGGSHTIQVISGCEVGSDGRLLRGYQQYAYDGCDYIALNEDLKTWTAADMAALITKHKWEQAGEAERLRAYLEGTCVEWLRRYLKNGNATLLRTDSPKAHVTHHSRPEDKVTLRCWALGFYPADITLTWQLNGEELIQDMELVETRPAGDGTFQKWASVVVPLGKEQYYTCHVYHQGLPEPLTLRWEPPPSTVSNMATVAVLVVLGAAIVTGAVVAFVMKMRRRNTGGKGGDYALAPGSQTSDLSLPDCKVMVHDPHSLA
Sequence (P01887 21-119 partner): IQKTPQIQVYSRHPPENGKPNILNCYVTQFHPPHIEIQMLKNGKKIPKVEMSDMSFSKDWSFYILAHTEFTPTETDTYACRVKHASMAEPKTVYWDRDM
Test: cell-based
Settings: sarsWT concentration scan; 1 h 26 °C then 6 h 37 °C; APC anti-mouse H-2K^b antibody, flow cytometry; Figure S2, mean ± SD n = 3; read-out: EC50 of pMHC stabilization on RMA-S cells
pEC50: −log10 of the molar value. Where no end group is shown, it is not given here.
PROPERTY MEASURED: pEC50

>>> reported_measurement("ESIVRFPNI [sarsWT]")
5.77
